Below: a set of entries, each annotated with reported Human Chemotaxis IC50 (rhGROα).
- SYSTEM NAME: T1, Human CXCR2 (human, UniProt P25025 1-360)
- T1 sequence: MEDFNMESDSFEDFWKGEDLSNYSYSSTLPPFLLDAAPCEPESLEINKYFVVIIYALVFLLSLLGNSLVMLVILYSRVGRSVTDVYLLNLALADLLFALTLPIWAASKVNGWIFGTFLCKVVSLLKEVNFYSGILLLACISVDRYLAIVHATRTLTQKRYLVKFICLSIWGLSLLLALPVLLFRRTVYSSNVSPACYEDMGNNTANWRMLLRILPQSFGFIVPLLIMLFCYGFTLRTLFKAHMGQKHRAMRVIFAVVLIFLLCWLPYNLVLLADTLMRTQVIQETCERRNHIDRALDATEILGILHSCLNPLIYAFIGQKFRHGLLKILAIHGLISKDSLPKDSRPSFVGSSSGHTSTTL
- ASSAY DETAILS: cell-based or functional assay
Please reply with the bare figure in nM and do not write the unit itself.

Please review the entries below; each comes with its answer.
BINDER	REPORTED
CXCR20034 (bispecific antibody, Biparatopic: two VHH joined by a GlySer linker; also called 163D2-35GS-2B2; 163D2-2B2; not shown: C-terminal c-myc tag and His6 tag coded by pAX100) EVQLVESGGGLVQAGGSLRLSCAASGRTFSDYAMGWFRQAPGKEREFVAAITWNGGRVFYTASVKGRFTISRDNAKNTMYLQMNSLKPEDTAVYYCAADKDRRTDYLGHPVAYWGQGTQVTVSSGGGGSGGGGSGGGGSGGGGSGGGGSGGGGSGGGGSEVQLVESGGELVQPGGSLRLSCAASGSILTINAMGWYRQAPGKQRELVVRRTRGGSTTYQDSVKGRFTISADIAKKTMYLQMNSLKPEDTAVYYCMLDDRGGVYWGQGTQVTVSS	0.143
CXCR20020 (bispecific antibody, Biparatopic: two VHH joined by a GlySer linker; also called 127D1-35GS-163D2; 127D1-163D2; not shown: C-terminal c-myc tag and His6 tag coded by pAX100) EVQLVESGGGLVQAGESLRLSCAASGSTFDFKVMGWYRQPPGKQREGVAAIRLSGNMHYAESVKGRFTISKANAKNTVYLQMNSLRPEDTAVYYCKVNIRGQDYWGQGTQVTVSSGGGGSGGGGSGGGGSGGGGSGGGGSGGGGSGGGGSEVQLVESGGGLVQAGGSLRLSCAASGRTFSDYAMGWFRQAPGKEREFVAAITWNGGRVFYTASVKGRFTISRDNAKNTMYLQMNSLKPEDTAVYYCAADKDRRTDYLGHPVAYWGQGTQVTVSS	0.143
CXCR20033 (bispecific antibody, Biparatopic: two VHH joined by a GlySer linker; also called 163E3-35GS-2B2; 163E3-2B2; not shown: C-terminal c-myc tag and His6 tag coded by pAX100) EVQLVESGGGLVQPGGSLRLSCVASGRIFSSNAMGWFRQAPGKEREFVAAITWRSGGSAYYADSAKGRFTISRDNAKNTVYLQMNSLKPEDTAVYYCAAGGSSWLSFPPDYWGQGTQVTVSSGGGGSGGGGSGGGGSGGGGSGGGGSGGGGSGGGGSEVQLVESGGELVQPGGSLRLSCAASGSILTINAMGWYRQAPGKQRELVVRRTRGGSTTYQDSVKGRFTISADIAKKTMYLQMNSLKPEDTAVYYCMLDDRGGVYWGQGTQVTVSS	0.15

INPUT: Consider the binder shown here: CXCR20014 (bispecific antibody, Biparatopic: two VHH joined by a GlySer linker; also called 97A9-35GS-2B2; 97A9-2B2; not shown: C-terminal c-myc tag and His6 tag coded by pAX100) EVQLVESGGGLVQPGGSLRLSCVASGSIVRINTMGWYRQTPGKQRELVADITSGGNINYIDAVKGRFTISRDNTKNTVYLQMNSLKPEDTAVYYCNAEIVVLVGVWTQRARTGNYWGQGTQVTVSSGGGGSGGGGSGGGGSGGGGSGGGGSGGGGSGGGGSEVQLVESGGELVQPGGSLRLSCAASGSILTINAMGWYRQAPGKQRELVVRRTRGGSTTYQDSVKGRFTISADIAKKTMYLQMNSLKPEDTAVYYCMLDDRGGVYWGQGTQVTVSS What is its recorded Human Chemotaxis IC50 (rhGROα)?
OUTPUT: 0.16

INPUT: Same lookup for CXCR20026 (bispecific antibody, Biparatopic: two VHH joined by a GlySer linker; also called 163E3-35GS-127D1; 163E3-127D1; not shown: C-terminal c-myc tag and His6 tag coded by pAX100) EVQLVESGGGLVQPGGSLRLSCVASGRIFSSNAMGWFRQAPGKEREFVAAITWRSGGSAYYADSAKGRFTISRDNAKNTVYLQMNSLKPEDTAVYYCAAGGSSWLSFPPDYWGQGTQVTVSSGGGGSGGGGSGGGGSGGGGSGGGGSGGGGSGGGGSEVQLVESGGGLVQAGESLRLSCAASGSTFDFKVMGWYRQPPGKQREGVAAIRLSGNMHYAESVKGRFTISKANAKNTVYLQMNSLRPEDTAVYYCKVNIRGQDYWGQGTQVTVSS , please.
OUTPUT: 0.14
